# TESTED ON: mTORC1 (Homo sapiens, UniProt P42345+P62942)
# Construct: endogenous in cells; host or cells: PC3 cells (human prostate adenocarcinoma)
# PROTOCOL DETAILS: Inhibition assay for mTORC1: phosphorylation of pS6K at Thr389, AlphaLISA in PC3 cells
# Type: cell-based
# EXPERIMENTAL PARAMETERS: read-out: pIC50 mTORC1 (converted)
REPORTED PROPERTY: IC50

**Query** Look up IC50: CO[C@@H]1C[C@H](C[C@@H](C)[C@@H]2CC(=O)[C@H](C)/C=C(\C)[C@@H](O)[C@@H](OC)C(=O)[C@H](C)C[C@H](C)/C=C/C=C/C=C(\C)C(c3cccn3C)C[C@@H]3CC[C@@H](C)[C@@](O)(O3)C(=O)C(=O)N3CCCCC3C(=O)O2)CC[C@H]1O (some centres unmarked)
**Result** 316 to 3160 pM

**Query** Need IC50 of COC1C[C@@H]2CC[C@@H](C)[C@@](O)(O2)C(=O)C(=O)N2CCCCC2C(=O)O[C@H]([C@H](C)C[C@@H]2CC[C@@H](OP(C)(C)=O)[C@H](OC)C2)CC(=O)[C@H](C)/C=C(\C)[C@@H](O)[C@@H](OC)C(=O)[C@H](C)C[C@H](C)/C=C/C=C/C=C/1C (some centres unmarked) , thanks.
**Result** < 316 pM

**Query** Can you share its IC50? I mean this molecule: CO[C@@H]1C[C@H](C[C@@H](C)[C@@H]2CC(=O)[C@H](C)/C=C(\C)[C@@H](O)[C@@H](OC)C(=O)[C@H](C)C[C@H](C)/C=C/C=C/C=C(\C)C(OCCCO)C[C@@H]3CC[C@@H](C)[C@@](O)(O3)C(=O)C(=O)N3CCCCC3C(=O)O2)CC[C@H]1O (some centres unmarked)
**Result** 316 to 3160 pM

**Query** // returns reported IC50 for input CO[C@@H]1C[C@H](C[C@@H](C)[C@@H]2CC(=O)[C@H](C)/C=C(\C)[C@@H](O)[C@@H](OC)C(=O)[C@H](C)C[C@H](C)/C=C/C=C/C=C(\C)C(OC[C@@H](C)O)C[C@@H]3CC[C@@H](C)[C@@](O)(O3)C(=O)C(=O)N3CCCCC3C(=O)O2)CC[C@H]1O (some centres unmarked)
**Result** 316 to 3160 pM

**Query** Need IC50, item COC1C[C@@H]2CC[C@@H](C)[C@@](O)(O2)C(=O)C(=O)N2CCCCC2C(=O)O[C@H]([C@H](C)C[C@@H]2CC[C@@H](OC(=O)N(C)CCN3CCOCC3)[C@H](OC)C2)CC(=O)[C@H](C)/C=C(\C)[C@@H](O)[C@@H](OC)C(=O)[C@H](C)C[C@H](C)/C=C/C=C/C=C/1C (some centres unmarked)
**Result** < 316 pM

**Query** State the recorded IC50 for this entry: COC1C[C@@H]2CC[C@@H](C)[C@@](O)(O2)C(=O)C(=O)N2CCCCC2C(=O)O[C@H]([C@H](C)C[C@@H]2CC[C@@H](OCCCN3CCOCC3)[C@H](OC)C2)CC(=O)[C@H](C)/C=C(\C)[C@@H](O)[C@@H](OC)C(=O)[C@H](C)C[C@H](C)/C=C/C=C/C=C/1C (some centres unmarked)
**Result** < 316 pM

**Query** // IC50 lookup, key: COC1C[C@@H]2CC[C@@H](C)[C@@](O)(O2)C(=O)C(=O)N2CCCCC2C(=O)O[C@H]([C@H](C)C[C@@H]2CC[C@@H](OC(=O)NC3C(O)O[C@H](CO)[C@@H](O)[C@@H]3O)[C@H](OC)C2)CC(=O)[C@H](C)/C=C(\C)[C@@H](O)[C@@H](OC)C(=O)[C@H](C)C[C@H](C)/C=C/C=C/C=C/1C (some centres unmarked)
**Result** > 3160 pM

**Query** Field request: IC50 | item: COC1C[C@@H]2CC[C@@H](C)[C@@](O)(O2)C(=O)C(=O)N2CCCCC2C(=O)O[C@H]([C@H](C)C[C@@H]2CC[C@@H](OC(=O)CN(C)C)[C@H](OC)C2)CC(=O)[C@H](C)/C=C(\C)[C@@H](O)[C@@H](OC)C(=O)[C@H](C)C[C@H](C)/C=C/C=C/C=C/1C (some centres unmarked)
**Result** < 316 pM

###

# TESTED ON: mTORC2 (Homo sapiens, UniProt P42345+P62942)
# Construct: endogenous in cells; host or cells: PC3 cells (human prostate adenocarcinoma)
# Sequence (P62942 2-108 limits assumed, other chains not shown): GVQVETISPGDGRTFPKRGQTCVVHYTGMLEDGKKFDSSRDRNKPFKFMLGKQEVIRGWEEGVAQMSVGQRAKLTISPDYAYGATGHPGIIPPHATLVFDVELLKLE
# PROTOCOL DETAILS: Inhibition assay for mTORC2: phosphorylation of pAkt at Ser473, AlphaLISA in PC3 cells
# Format: cell-based
# EXPERIMENTAL PARAMETERS: PC3 cells, treated 24 hours, pAkt Ser473, AlphaLISA; C16 diastereomer mixtures not separated
# Description: The IC50s of the inhibition of mTORC1 and mTORC2 were determined in vitro by determining the phosphorylation of pS6K at position Thr389 (mTORC1 inhibition) and pAkt at Ser473 (mTORC2 inhibition). In vitro studies were performed with AlphaLISA® technology using PC3 cells (Prostate Adenocarcinoma; Human (Homo sapiens)). The cells were seeded in 96 well plates and were treated for 24 hours with the different compounds. […]
REPORTED PROPERTY: pIC50 mTORC2

**Query** What does the record list as pIC50 mTORC2 for COCCOC1CC2CCC(C)C(O)(O2)C(=O)C(=O)N2CCCCC2C(=O)OC(C(C)CC2CCC(OCC(O)CO)C(OC)C2)CC(=O)C(C)C=C(C)C(O)C(OC)C(=O)C(C)CC(C)C=CC=CC=C1C (centres unmarked) ?
**Result** B (5 to 6 as B)

**Query** Please report the recorded pIC50 mTORC2 for CO[C@@H]1C[C@H](C[C@@H](C)[C@@H]2CC(=O)[C@H](C)/C=C(\C)[C@@H](O)[C@@H](OC)C(=O)[C@H](C)C[C@H](C)/C=C/C=C/C=C(\C)C(OC[C@H](O)c3ccccc3)C[C@@H]3CC[C@@H](C)[C@@](O)(O3)C(=O)C(=O)N3CCCCC3C(=O)O2)CC[C@H]1OCCO (some centres unmarked) .
**Result** B (5 to 6 as B)

###

# TESTED ON: mTORC2 (Homo sapiens, UniProt P42345+P62942)
# Construct: endogenous in cells; host or cells: PC3 cells (human prostate adenocarcinoma)
# PROTOCOL DETAILS: Inhibition assay for mTORC2: phosphorylation of pAkt at Ser473, AlphaLISA in PC3 cells
# Format: cell-based
# EXPERIMENTAL PARAMETERS: PC3 cells, treated 24 hours, pAkt Ser473, AlphaLISA; C16 diastereomer mixtures not separated; read-out: pIC50 mTORC2 (converted)
Each item that follows carries a reported IC50.

**Query** Would you kindly share the measured IC50 for CO[C@@H]1C[C@H](C[C@@H](C)[C@@H]2CC(=O)[C@H](C)/C=C(\C)[C@@H](O)[C@@H](OC)C(=O)[C@H](C)C[C@H](C)/C=C/C=C/C=C(\C)C(OCCO)C[C@@H]3CC[C@@H](C)[C@@](O)(O3)C(=O)C(=O)N3CCCC[C@H]3C(=O)O2)CC[C@H]1OC(=O)NCCc1ccccc1 (mixture of isomers) ?
**Result** > 10 µM

***
**Query** Return reported IC50; argument: COCCOC1C[C@@H]2CC[C@@H](C)[C@@](O)(O2)C(=O)C(=O)N2CCCC[C@H]2C(=O)O[C@H]([C@H](C)C[C@@H]2CC[C@@H](OCCCN3CCN(C(C)C)CC3)[C@H](OC)C2)CC(=O)[C@H](C)/C=C(\C)[C@@H](O)[C@@H](OC)C(=O)[C@H](C)C[C@H](C)/C=C/C=C/C=C/1C (mixture of isomers)
**Result** 1 to 10 µM

**Query** Quick one: IC50 for COCCOC1C[C@@H]2CC[C@@H](C)[C@@](O)(O2)C(=O)C(=O)N2CCCC[C@H]2C(=O)O[C@H]([C@H](C)C[C@@H]2CC[C@@H](OCCN3CC4(COC4)C3)[C@H](OC)C2)CC(=O)[C@H](C)/C=C(\C)[C@@H](O)[C@@H](OC)C(=O)[C@H](C)C[C@H](C)/C=C/C=C/C=C/1C (mixture of isomers) ?
**Result** 1 to 10 µM

**Query** Fill in the blank: the reported IC50 of COCCOC1CC2CCC(C)C(O)(O2)C(=O)C(=O)N2CCCCC2C(=O)OC(C(C)CC2CCC(OCCCN3CCOCC3C)C(OC)C2)CC(=O)C(C)C=C(C)C(O)C(OC)C(=O)C(C)CC(C)C=CC=CC=C1C (mixture of isomers) is ____.
**Result** 1 to 10 µM

**Query** Dear colleague, I am looking for the recorded IC50 of the following molecule: CO[C@@H]1C[C@H](C[C@@H](C)[C@@H]2CC(=O)[C@H](C)/C=C(\C)[C@@H](O)[C@@H](OC)C(=O)[C@H](C)C[C@H](C)/C=C/C=C/C=C(\C)C(OCCCCO)C[C@@H]3CC[C@@H](C)[C@@](O)(O3)C(=O)C(=O)N3CCCC[C@H]3C(=O)O2)CC[C@H]1OCCCN1CCOCC1 (mixture of isomers)
**Result** 1 to 10 µM

**Query** Dear colleague, I am looking for the recorded IC50 of the following molecule: COCCOC1C[C@@H]2CC[C@@H](C)[C@@](O)(O2)C(=O)C(=O)N2CCCC[C@H]2C(=O)O[C@H]([C@H](C)C[C@@H]2CC[C@@H](OCCCN3CC4(COC4)C3)[C@H](OC)C2)CC(=O)[C@H](C)/C=C(\C)[C@@H](O)[C@@H](OC)C(=O)[C@H](C)C[C@H](C)/C=C/C=C/C=C/1C (mixture of isomers)
**Result** > 10 µM

**Query** # input molecule: CO[C@@H]1C[C@H](C[C@@H](C)[C@@H]2CC(=O)[C@H](C)/C=C(\C)[C@@H](O)[C@@H](OC)C(=O)[C@H](C)C[C@H](C)/C=C/C=C/C=C(\C)C(OC[C@@H](C)O)C[C@@H]3CC[C@@H](C)[C@@](O)(O3)C(=O)C(=O)N3CCCC[C@H]3C(=O)O2)CC[C@H]1OCCO (mixture of isomers) ; wanted: its IC50
**Result** > 10 µM

**Query** What value of measured IC50 is listed for COCCOC1C[C@@H]2CC[C@@H](C)[C@@](O)(O2)C(=O)C(=O)N2CCCC[C@H]2C(=O)O[C@H]([C@H](C)C[C@@H]2CC[C@@H](OCCCN3CCC(C(C)(C)O)CC3)[C@H](OC)C2)CC(=O)[C@H](C)/C=C(\C)[C@@H](O)[C@@H](OC)C(=O)[C@H](C)C[C@H](C)/C=C/C=C/C=C/1C (mixture of isomers) ?
**Result** 1 to 10 µM

**Query** Would you kindly share the measured IC50 for COC1CC(CC(C)C2CC(=O)C(C)C=C(C)C(O)C(OC)C(=O)C(C)CC(C)C=CC=CC=C(C)C(OCCO)CC3CCC(C)C(O)(O3)C(=O)C(=O)N3CCCCC3C(=O)O2)CCC1OCCCN1CCOCC1C (mixture of isomers) ?
**Result** > 10 µM
